System: M14
Assay: Growth inhibition of human M14 cells assessed as cell growth at 10 uM after 48 hrs by sulforhodamine B assay
Type: functional
Details: M14, 48 h, read-out: Activity
Criterion: growth at 10 µM strictly under 20%. Met: Fulfilled. Not met: Not fulfilled.

Q) Please check: growth at 10 µM for COc1cc(-c2nn(-c3cccc(NC(=O)Nc4ccccc4)c3)cc2-c2ccncc2)ccc1Cl , strictly under 20% or not?
A) Not fulfilled

Q) Please check: growth at 10 µM for Cc1cc(C(=O)Nc2cccc(-n3cc(-c4ccncc4)c(-c4ccc(Cl)c(O)c4)n3)c2)ccc1Br , strictly under 20% or not?
A) Not fulfilled

Q) Please check: growth at 10 µM for O=C(Nc1cccc(-n2cc(-c3ccncc3)c(-c3ccc(Cl)c(O)c3)n2)c1)Nc1cccc(C(F)(F)F)c1 , strictly under 20% or not?
A) Fulfilled

Q) Please check: growth at 10 µM for O=C(Nc1cccc(-n2cc(-c3ccncc3)c(-c3ccc(Cl)c(O)c3)n2)c1)Nc1cc(C(F)(F)F)cc(C(F)(F)F)c1 , strictly under 20% or not?
A) Fulfilled

Q) Please check: growth at 10 µM for O=C(Nc1cccc(-n2cc(-c3ccncc3)c(-c3ccc(Cl)c(O)c3)n2)c1)Nc1ccc(Cl)c(Cl)c1 , strictly under 20% or not?
A) Fulfilled

Q) Please check: growth at 10 µM for COc1cc(-c2nn(-c3cccc(NC(=O)c4cccc(C(F)(F)F)c4)c3)cc2-c2ccncc2)ccc1Cl , strictly under 20% or not?
A) Fulfilled

Q) Please check: growth at 10 µM for COc1cc(-c2nn(-c3cccc(NC(=O)c4ccc(Cl)c(C(F)(F)F)c4)c3)cc2-c2ccncc2)ccc1Cl , strictly under 20% or not?
A) Not fulfilled

Q) Please check: growth at 10 µM for O=C(Nc1cccc(-n2cc(-c3ccncc3)c(-c3ccc(Cl)c(O)c3)n2)c1)c1ccc(N2CCOCC2)c(C(F)(F)F)c1 , strictly under 20% or not?
A) Not fulfilled

---

Test system: U-251
Assay: Growth inhibition of human U251 cells assessed as cell growth at 5X10'-8 M after 48 hrs by sulforhodamine B assay
Format: functional
Conditions: U-251, 48 h, read-out: Activity
Quantity kind: growth at 0.05 µM (%)
Your answer should be a plain number; it is taken to be in %.

Q) Provide U-251 growth at 0.05 µM reading for COc1cc(-c2nn(-c3cccc(NC(=O)Nc4ccc(Cl)c(Cl)c4)c3)cc2-c2ccncc2)ccc1Cl .
A) 93

Q) Provide U-251 growth at 0.05 µM reading for COc1cc(-c2nn(-c3cccc(NC(=O)Nc4cccc(C(F)(F)F)c4)c3)cc2-c2ccncc2)ccc1Cl .
A) 98

Q) Provide U-251 growth at 0.05 µM reading for O=C(Nc1cccc(-n2cc(-c3ccncc3)c(-c3ccc(Cl)c(O)c3)n2)c1)Nc1cc(C(F)(F)F)cc(C(F)(F)F)c1 .
A) 93

Q) Provide U-251 growth at 0.05 µM reading for O=C(Nc1cccc(-n2cc(-c3ccncc3)c(-c3ccc(Cl)c(O)c3)n2)c1)c1ccc(N2CCOCC2)c(C(F)(F)F)c1 .
A) 101

---

Test system: SF-295
Assay: Growth inhibition of human SF295 cells after 48 hrs by sulforhodamine B assay
Type: functional, cell-based
Settings: SF-295, 48 h
Please respond with reported GI50 for every item in the list.
Your answer should be a plain number; it is taken to be in nM.

Q) Provide SF-295 GI50 reading for O=C(Nc1cccc(-n2cc(-c3ccncc3)c(-c3ccc(Cl)c(O)c3)n2)c1)c1ccc(N2CCOCC2)c(C(F)(F)F)c1 .
A) 1710

Q) Provide SF-295 GI50 reading for COc1cc(-c2nn(-c3cccc(NC(=O)c4cccc(C(F)(F)F)c4)c3)cc2-c2ccncc2)ccc1Cl .
A) 1020

Q) Provide SF-295 GI50 reading for COc1cc(-c2nn(-c3cccc(NC(=O)Nc4ccc(Cl)c(C(F)(F)F)c4)c3)cc2-c2ccncc2)ccc1Cl .
A) 840

Q) Provide SF-295 GI50 reading for COc1cc(-c2nn(-c3cccc(NC(=O)c4ccccc4)c3)cc2-c2ccncc2)ccc1Cl .
A) 337

---

Test system: OVCAR-3
Experiment: Growth inhibition of human OVCAR3 cells after 48 hrs by sulforhodamine B assay
Type: functional, cell-based
Conditions: OVCAR-3, 48 h
Quantity kind: GI50 (nM)
Your answer should be a plain number; it is taken to be in nM.

Q) Give the reported value of GI50 for this record: COc1cc(-c2nn(-c3cccc(NC(=O)Nc4ccc(Cl)c(C(F)(F)F)c4)c3)cc2-c2ccncc2)ccc1Cl
A) 889

Q) Give the reported value of GI50 for this record: COc1cc(-c2nn(-c3cccc(NC(=O)Nc4cc(C(F)(F)F)cc(C(F)(F)F)c4)c3)cc2-c2ccncc2)ccc1Cl
A) 411

Q) Give the reported value of GI50 for this record: O=C(Nc1cccc(-n2cc(-c3ccncc3)c(-c3ccc(Cl)c(O)c3)n2)c1)Nc1cc(C(F)(F)F)cc(C(F)(F)F)c1
A) 395

Q) Give the reported value of GI50 for this record: O=C(Nc1cccc(-n2cc(-c3ccncc3)c(-c3ccc(Cl)c(O)c3)n2)c1)Nc1cccc(C(F)(F)F)c1
A) 1060

---

Tested on: MDA-MB-468
Assay: Growth inhibition of human MDA-MB-468 cells assessed as cell growth at 5X10'-8 M after 48 hrs by sulforhodamine B assay
Assay type: functional
Conditions: MDA-MB-468, 48 h, read-out: Activity
Quantity kind: growth at 0.05 µM (%)
Your answer should be a plain number; it is taken to be in %.

Q) Provide MDA-MB-468 growth at 0.05 µM reading for COc1cc(-c2nn(-c3cccc(NC(=O)Nc4cccc(C(F)(F)F)c4)c3)cc2-c2ccncc2)ccc1Cl .
A) 92

Q) Provide MDA-MB-468 growth at 0.05 µM reading for O=C(Nc1cccc(-n2cc(-c3ccncc3)c(-c3ccc(Cl)c(O)c3)n2)c1)c1ccc(N2CCOCC2)c(C(F)(F)F)c1 .
A) 93

Q) Provide MDA-MB-468 growth at 0.05 µM reading for O=C(Nc1cccc(-n2cc(-c3ccncc3)c(-c3ccc(Cl)c(O)c3)n2)c1)Nc1cc(C(F)(F)F)cc(C(F)(F)F)c1 .
A) 85

Q) Provide MDA-MB-468 growth at 0.05 µM reading for COc1cc(-c2nn(-c3cccc(NC(=O)Nc4ccc(Cl)c(Cl)c4)c3)cc2-c2ccncc2)ccc1Cl .
A) 84

Q) Provide MDA-MB-468 growth at 0.05 µM reading for COc1cc(-c2nn(-c3cccc(NC(=O)c4cccc(C(F)(F)F)c4)c3)cc2-c2ccncc2)ccc1Cl .
A) 90

---

Please respond with reported growth at 10 µM for every item in the list.
Tested on: HCT-116
Assay: Growth inhibition of human HCT116 cells assessed as cell growth at 10 uM after 48 hrs by sulforhodamine B assay
Type: functional
Conditions: HCT-116, 48 h, read-out: Activity
Your answer should be a plain number; it is taken to be in %.

Q) Give the reported value of growth at 10 µM for this record: COc1cc(-c2nn(-c3cccc(NC(=O)Nc4ccccc4)c3)cc2-c2ccncc2)ccc1Cl
A) 87.2

Q) Give the reported value of growth at 10 µM for this record: O=C(Nc1cccc(-n2cc(-c3ccncc3)c(-c3ccc(Cl)c(O)c3)n2)c1)Nc1cc(C(F)(F)F)cc(C(F)(F)F)c1
A) -59.1

Q) Give the reported value of growth at 10 µM for this record: O=C(Nc1cccc(-n2cc(-c3ccncc3)c(-c3ccc(Cl)c(O)c3)n2)c1)c1ccccc1
A) 57.8

Q) Give the reported value of growth at 10 µM for this record: Cc1cc(C(=O)Nc2cccc(-n3cc(-c4ccncc4)c(-c4ccc(Cl)c(O)c4)n3)c2)ccc1Br
A) 94.4

Q) Give the reported value of growth at 10 µM for this record: O=C(Nc1cccc(-n2cc(-c3ccncc3)c(-c3ccc(Cl)c(O)c3)n2)c1)Nc1ccc(Cl)c(Cl)c1
A) 11.1

Q) Give the reported value of growth at 10 µM for this record: COc1cc(-c2nn(-c3cccc(NC(=O)c4cccc(C(F)(F)F)c4)c3)cc2-c2ccncc2)ccc1Cl
A) 8.15

Q) Give the reported value of growth at 10 µM for this record: COc1cc(-c2nn(-c3cccc(NC(=O)Nc4cc(C(F)(F)F)cc(C(F)(F)F)c4)c3)cc2-c2ccncc2)ccc1Cl
A) -43.6

Q) Give the reported value of growth at 10 µM for this record: O=C(Nc1cccc(-n2cc(-c3ccncc3)c(-c3ccc(Cl)c(O)c3)n2)c1)c1ccc(Cl)c(C(F)(F)F)c1
A) 100

Q) Give the reported value of growth at 10 µM for this record: COc1cc(-c2nn(-c3cccc(NC(=O)c4ccc(Br)c(C)c4)c3)cc2-c2ccncc2)ccc1Cl
A) 70.3

Q) Give the reported value of growth at 10 µM for this record: O=C(Nc1cccc(-n2cc(-c3ccncc3)c(-c3ccc(Cl)c(O)c3)n2)c1)Nc1ccc(Cl)c(C(F)(F)F)c1
A) -51

Data origin: ChEMBL document CHEMBL2440076
